Let's look at some compounds and their measured inhibition.
Target: Uracil-DNA glycosylase (Homo sapiens);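 also: UNG excision on a quenched double-stranded DNA oligo probe, with APE1 added for strand incision and turnover, read as fluorescence at 594 nm as strands separate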
Conditions: Compound Concentration 10.0 uM, Hit No
Description: Inhibition of UNG by quantifying inhibition of UNG-mediated cleavage and dissociation of quenched duplex DNA oligonucleotides, measured as fluorescence at 594 nm. To generate a functional strand incision and increase turn-over this assay is coupled to APE1.
Endpoint: inhibition (%)

Compound: CNC(=O)COc1cc2cc(Nc3nc(N4CCC(C(=O)N(C)C)CC4)ncc3Cl)cc(OC)c2n(C)c1=O
Endpoint: inhibition
Endpoint unit: %
Readout number: 0.116
--
Compound: CNc1ncc2cc(-c3ccc(-c4ncccc4F)cc3Cl)c(=O)n(C[C@H]3OC[C@H](N)CO3)c2n1
Endpoint: inhibition
Endpoint unit: %
Readout number: 9.96
--
Compound: COc1cc(N(C)c2ccnc3ccc(C(F)(F)F)cc23)cc(OC)c1OC
Endpoint: inhibition
Endpoint unit: %
Readout number: 1.59
--
Compound: FC(F)(F)c1ccccc1-c1cc(C(F)(F)F)c2[nH]c(C3=NOC4(CCCCC4)C3)nc2c1
Endpoint: inhibition
Endpoint unit: %
Readout number: -6.03
--
Compound: CN(C)c1ncc2cc(-c3ccc(-c4ncccc4F)cc3Cl)c(=O)n(C[C@H]3OC[C@H](N)CO3)c2n1
Endpoint: inhibition
Endpoint unit: %
Readout number: 6.12
--
Compound: CC[C@H](C(=O)Nc1ccccc1N1CCCC1)c1ccccc1
Endpoint: inhibition
Endpoint unit: %
Readout number: -2.53
--
Compound: CN1CCN(c2ccc(Nc3c4ccccc4nc4ccccc34)cc2)CC1
Endpoint: inhibition
Endpoint unit: %
Readout number: 12.9
--
Compound: CN[C@@H]1Cc2cccc3[nH]c(=O)n(c23)C1
Endpoint: inhibition
Endpoint unit: %
Readout number: -3.54
--
Compound: Clc1ccc(CCCOCCCN2CCCCC2)cc1
Endpoint: inhibition
Endpoint unit: %
Readout number: -8.48
--
Compound: CNc1cc(Oc2cc(C(=O)Nc3cc(N4CCN(C)CC4)cc(C(F)(F)F)c3)ccc2C)ncn1
Endpoint: inhibition
Endpoint unit: %
Readout number: -3.12
--
Compound: CN1[C@@H](CC(=O)c2ccccc2)CCC[C@H]1C[C@H](O)c1ccccc1
Endpoint: inhibition
Endpoint unit: %
Readout number: -4.79
--
Compound: Cc1ccc(C(C)(O)c2nc3ccccc3s2)c(C)c1 (stereo not given)
Endpoint: inhibition
Endpoint unit: %
Readout number: -8.45
--
Compound: CC[C@H](CC(=O)O)n1c(=O)c2ncccc2n(Cc2cn(C)c3cc(C)cc(C)c23)c1=O
Endpoint: inhibition
Endpoint unit: %
Readout number: 0.131
--
Compound: Cn1c(=O)n(CCCO)c(=O)c2c1nc(Oc1cccc(OC(F)(F)F)c1)n2Cc1ccc(Cl)cc1
Endpoint: inhibition
Endpoint unit: %
Readout number: -4.54
--
Compound: CCNC(=O)c1cc2c(N3CCOC[C@@H]3C)ccnc2n1C
Endpoint: inhibition
Endpoint unit: %
Readout number: -0.625
--
Compound: O=c1[nH]c2ccccc2n1CCCN1CCN(C(c2ccccc2)c2ccccc2)CC1
Endpoint: inhibition
Endpoint unit: %
Readout number: 4.47
--
Compound: COc1cc(C(=O)O)ncc1C#Cc1ccccc1NS(=O)(=O)c1cccc2c(N(C)C)ccnc12
Endpoint: inhibition
Endpoint unit: %
Readout number: 2.52
--
Compound: CCCCCCCCc1ccc(CC[C@](N)(CO)COP(=O)(O)O)cc1
Endpoint: inhibition
Endpoint unit: %
Readout number: -7.46
--
Compound: CC(=O)Nc1nc(CN2CCC[C@H](Cc3cc(C)nc(C)c3)C2)cs1
Endpoint: inhibition
Endpoint unit: %
Readout number: 7.98
--
Compound: Cc1nnsc1C(=O)Nc1ccc(-n2nc(C(F)(F)F)cc2C(F)(F)F)cc1
Endpoint: inhibition
Endpoint unit: %
Readout number: -0.15
